# subject-of-test: Cdk-2/cyclin E (Homo sapiens, UniProt P24941)
# experiment-summary: Recombinant kinase radioassay, Cdk-2/cyclin E
# test-conditions: ATP 15 µM, at least three independent experiments, range 0.01–100 µM
pIC50: −log10 of the molar value.
attribute-measured: pIC50

Example entries begin here.
CN1CCN(C(=O)c2ccc(Nc3nc(Nc4ccccc4)c4ncn(CC5CC5)c4n3)cc2)CC1 [Compound 8a] :: 4.50
CN1CCN(c2ccc(Nc3nc(Nc4ccc(Cl)c(Cl)c4)c4ncn(CC5CC5)c4n3)cc2)CC1 [Compound 4n] :: 4.89
CN1CCN(c2ccc(Nc3nc(Nc4ccc([N+](=O)[O-])cc4)c4ncn(CC5CC5)c4n3)cc2)CC1 [Compound 4j] :: 4.62
CN1CCN(c2ccc(Nc3nc(Nc4cccc(OC(F)(F)F)c4)c4ncn(CC5CC5)c4n3)cc2)CC1 [Compound 4e] :: 4.32
CN1CCN(c2ccc(Nc3nc(Nc4ccc(OC(F)(F)F)c([N+](=O)[O-])c4)c4ncn(CC5CC5)c4n3)cc2)CC1 [Compound 4o] :: 4.90
CC(C)CCn1cnc2c(Nc3ccccc3)nc(Nc3ccc(N4CCN(C)CC4)cc3)nc21 [Compound 5a] :: 4.66
CCCCCCCCn1cnc2c(Nc3ccccc3)nc(Nc3ccc(N4CCN(C)CC4)cc3)nc21 [Compound 5j] :: 4.72
CCCCCCCCn1cnc2c(Nc3cccc(F)c3)nc(Nc3ccc(N4CCN(C)CC4)cc3)nc21 [Compound 5k] :: 4.59
CC(C)CCn1cnc2c(Nc3ccc(F)c(F)c3)nc(Nc3ccc(N4CCN(C)CC4)cc3)nc21 [Compound 5c] :: 4.20
CN1CCN(c2ccc(Nc3nc(Nc4ccccc4F)c4ncn(CC5CC5)c4n3)cc2)CC1 [Compound 4a] :: 4.86

1 = CN1CCN(c2ccc(Nc3nc(Nc4cccc(C(F)(F)F)c4)c4ncn(CC5CC5)c4n3)cc2)CC1 [Compound 4d]
2 = CCCCCCn1cnc2c(Nc3cccc(F)c3)nc(Nc3ccc(N4CCN(C)CC4)cc3)nc21 [Compound 5h]
3 = CCCCCCCCn1cnc2c(Nc3ccc(F)c(F)c3)nc(Nc3ccc(N4CCN(C)CC4)cc3)nc21 [Compound 5l]
## Task Your job: order these 3 records by pIC50, ascending. Output spec: labels arranged per the requested ranking.
## Result 2, 3, 1
(2: 4.09, 3: 4.49, 1: 4.81)

----------
# System: K562
attribute-measured: GI50 (µM)
Unit µM implied. Number only.

CC(C)CCn1cnc2c(Nc3ccc(F)c(F)c3)nc(Nc3ccc(N4CCN(C)CC4)cc3)nc21 :: 9.4
CN1CCN(c2ccc(Nc3nc(Nc4cccc([N+](=O)[O-])c4)c4ncn(CC5CC5)c4n3)cc2)CC1 :: 2.93
CCCCCCn1cnc2c(Nc3cccc(F)c3)nc(Nc3ccc(N4CCN(C)CC4)cc3)nc21 :: 24.7
CCCCCCCCn1cnc2c(Nc3ccc(F)c(F)c3)nc(Nc3ccc(N4CCN(C)CC4)cc3)nc21 :: 11.8
CN1CCN(c2ccc(Nc3nc(Nc4cccc(OC(F)(F)F)c4)c4ncn(CC5CC5)c4n3)cc2)CC1 :: 5.18
CN1CCN(c2ccc(Nc3nc(Nc4cccc(C(F)(F)F)c4)c4ncn(CC5CC5)c4n3)cc2)CC1 :: 4.51
CN1CCN(C(=O)c2ccc(Nc3nc(Nc4ccccc4)c4ncn(CC5CC5)c4n3)cc2)CC1 :: 8.91
CCCCCCn1cnc2c(Nc3ccccc3)nc(Nc3ccc(N4CCN(C)CC4)cc3)nc21 :: 15.5
Cc1cccc(Nc2nc(Nc3ccc(N4CCN(C)CC4)cc3)nc3c2ncn3CC2CC2)c1 :: 2.86
CCCCCn1cnc2c(Nc3cccc(F)c3)nc(Nc3ccc(N4CCN(C)CC4)cc3)nc21 :: 2.14

## Task What measured GI50 goes with CN1CCN(c2ccc(Nc3nc(Nc4ccc(Cl)c(F)c4)c4ncn(CC5CC5)c4n3)cc2)CC1 ?
## Result 3.45

## Task What measured GI50 goes with CN1CCN(c2ccc(Nc3nc(Nc4ccccc4)c4ccn(CC5CC5)c4n3)cc2)CC1 ?
## Result 6.38

## Task What measured GI50 goes with CCCCCn1cnc2c(Nc3ccccc3)nc(Nc3ccc(N4CCN(C)CC4)cc3)nc21 ?
## Result 6.7

## Task What measured GI50 goes with CN1CCN(c2ccc(Nc3nc(Nc4ccc(C#N)cc4)c4ncn(CC5CC5)c4n3)cc2)CC1 ?
## Result 1.03
